- TARGET_ENTITY: T1, human NKp46 (human, UniProt O76036 22-304)
- T1 construct: also called CD335; NCR1
- PROTOCOL_DETAILS: flow cytometry, HEK293F cells transfected with human NKp46
MEASURE_NAME: Bmax (MFI)
# value in MFI; strip the unit string

Ask | // fetch Bmax (MFI) given entry NKp46-hz5D7v15-Fc* (Fc fusion, VHH-Fc fusion with an IgG1 Fc lacking a hinge (Fc*)) EVQLVESGGGEVQPGGSLRLSCAASGRTFASAAMGWFRQAPGKEREFVAAISRSDDTYYAESVKGRFTISRDNAKNTVYLQMSSLRAEDTAVYYCAAVVPTYGNAIYVHSAAYNYWGQGTLVTVKPGGGGPSVFLFPPKPKDTLMISRTPEVTCVVVDVSHEDPEVKFNWYVDGVEVHNAKTKPREEQYNSTYRVVSVLTVLHQDWLNGKEYKCKVSNKALPAPIEKTISKAKGQPREPQVYTLPPSRDELTKNQVSLTCLVKGFYPSDIAVEWESNGQPENNYKTTPPVLDSDGSFFLYSKLTVDKSRWQQGNVFSCSVMHEALHNHYTQKSLSLSPG
Reply | 143000

Data credit: patent US20240376198A1
